- ASSAY_METHOD_TEXT: In vitro urine stability assay (HPLC) of In-111 labeled peptide
- Type: in vitro ADME
- CONDITION: rat urine, 37EC, 4 hours
*1 amine or outer side, *2 acyl side, *3 side chain or, on linkers, in order; H or OH if unused. Where a SMILES comes first, the peptide text is derived from it. [ ]: non-standard residue; d: D form. The star is where a group is joined. ξ: configuration not given here. Gly(1-amidinopiperidin-4-yl) = N=C(N)N1CCC([C@H](N)C(=O)O)CC1; DTPA = O=C(O)CN(CCN(CC(=O)O)CC(=O)O)CCN(CC(=O)O)CC(=O)*; ξGly(4-Pip(1-amidino)) = N=C(N)N1CCC(C(N)C(=O)O)CC1; X2 = NC[C@H]1CC[C@H](C[C@H](N[*:1])C(=O)[*:2])CC1; mTyr = N[C@@H](Cc1cccc(O)c1)C(=O)O; Tle = CC(C)(C)[C@H](N)C(=O)O; Pip = O=C(O)[C@@H]1CCCCN1
Decide using % of peptide at 4 hours after incubation at 37EC, Urine alone. Strictly below 80%: met. Equal to or above 80%: not met.

CC(C)C[C@H](NC(=O)[C@@H](NC(=O)[C@H](Cc1cccc(O)c1)NC(=O)[C@@H]1CCCN1C(=O)[C@H](CCCNC(=N)N)NC(=O)C(NC(=O)[C@@H]1CCCN1C(=O)[C@@H](CCCCN)NC(=O)CN(CCN(CCN(CC(=O)O)CC(=O)O)CC(=O)O)CC(=O)O)C1CCN(C(=N)N)CC1)C(C)(C)C)C(=O)O (stereo partly drawn) ({DTPA}-[dK]P[ξGly(4-Pip(1-amidino))]RP[mTyr][Tle]L-OH); met
CC[C@H](C)[C@H](NC(=O)[C@H](Cc1ccc(O)cc1)NC(=O)[C@@H]1CCCN1C(=O)[C@H](CCCNC(=N)N)NC(=O)C(NC(=O)[C@@H]1CCCN1C(=O)[C@@H](CCCCN)NC(=O)CN(CCN(CCN(CC(=O)O)CC(=O)O)CC(=O)O)CC(=O)O)C1CCN(C(=N)N)CC1)C(=O)N[C@@H](CC(C)C)C(=O)O (single isomer, unassigned); met
CC(C)C[C@H](NC(=O)[C@@H](NC(=O)[C@H](Cc1ccc(O)cc1)NC(=O)[C@@H]1CCCCN1C(=O)[C@H](CCCNC(=N)N)NC(=O)C(NC(=O)[C@@H]1CCCN1C(=O)[C@@H](CCCCN)NC(=O)CN(CCN(CCN(CC(=O)O)CC(=O)O)CC(=O)O)CC(=O)O)C1CCN(C(=N)N)CC1)C(C)(C)C)C(=O)O (stereo partly drawn) ({DTPA}-[dK]P[ξGly(4-Pip(1-amidino))]R[Pip]Y[Tle]L-OH); met
CC(C)C[C@H](NC(=O)[C@@H](NC(=O)[C@H](Cc1ccc(O)cc1)NC(=O)[C@@H]1CCCN1C(=O)[C@H](CCCNC(=N)N)NC(=O)[C@@H](NC(=O)[C@@H]1CCCN1C(=O)[C@H](C[C@H]1CC[C@H](CN)CC1)NC(=O)CN(CCN(CCN(CC(=O)O)CC(=O)O)CC(=O)O)CC(=O)O)C1CCN(C(=N)N)CC1)C(C)(C)C)C(=O)O [Compound XII] ({DTPA}-[X2]P[Gly(1-amidinopiperidin-4-yl)]RPY[Tle]L-OH); not met

###

Some molecules, each annotated with its measured % of peptide at 4 hours after incubation at 37EC, Urine.
- ASSAY_METHOD_TEXT: In vitro urine stability assay (HPLC) of In-111 labeled peptide
- Format: in vitro ADME
- CONDITION: rat urine, 37EC, 4 hours
- Method: All reagents were purchased from Sigma unless otherwise noted. The peptide and ^111InCl3 in 0.05 N HCl were incubated in a sodium acetate/ascorbic acid buffer for 30 minutes at room temperature. The reaction was diluted with 5% ethanol/95% PBS before using in subsequent in vitro assays. Human serum was purchased from Sigma (H 1388). The labeled peptide was incubated in either human serum or rat urine at 37EC for the specified amount of time. […]
Where a SMILES comes first, the peptide text is derived from it. [ ]: non-standard residue; d: D form. The star is where a group is joined. ξ: configuration not given here. DTPA = O=C(O)CN(CCN(CC(=O)O)CC(=O)O)CCN(CC(=O)O)CC(=O)*; Phe(4-guanidino) = N=C(N)Nc1ccc(C[C@H](N)C(=O)O)cc1; ξGly(4-Pip(1-amidino)) = N=C(N)N1CCC(C(N)C(=O)O)CC1; ξPhe(4-guanidino) = N=C(N)Nc1ccc(CC(N)C(=O)O)cc1; X1 = CC(C)C[C@@H](CN[C@@H](CC(C)C)C(N)=O)N*; tBuAla = CC(C)(C)C[C@H](N)C(=O)O; Chg = N[C@H](C(=O)O)C1CCCCC1; Tle = CC(C)(C)[C@H](N)C(=O)O; Aze = O=C(O)[C@@H]1CCN1
OUTCOME_MEASURE: % of peptide at 4 hours after incubation at 37EC, Urine

CC(C)C[C@H](NC(=O)[C@@H](NC(=O)[C@H](Cc1ccc(O)cc1)NC(=O)[C@@H]1CCN1C(=O)[C@H](CCCNC(=N)N)NC(=O)C(NC(=O)[C@@H]1CCCN1C(=O)[C@@H](CCCCN)NC(=O)CN(CCN(CCN(CC(=O)O)CC(=O)O)CC(=O)O)CC(=O)O)C1CCN(C(=N)N)CC1)C(C)(C)C)C(=O)O (stereo partly drawn) ({DTPA}-[dK]P[ξGly(4-Pip(1-amidino))]R[Aze]Y[Tle]L-OH); 36.5%
CC(C)C[C@H](NC(=O)[C@@H](NC(=O)[C@H](Cc1ccc(O)cc1)NC(=O)[C@@H]1CCCN1C(=O)[C@H](CCCNC(=N)N)NC(=O)C(NC(=O)[C@@H]1CCCN1C(=O)[C@@H](CCCCN)NC(=O)CN(CCN(CCN(CC(=O)O)CC(=O)O)CC(=O)O)CC(=O)O)C1CCN(C(=N)N)CC1)C1CCCCC1)C(=O)O (stereo partly drawn) ({DTPA}-[dK]P[ξGly(4-Pip(1-amidino))]RPY[Chg]L-OH); 7.0%
CC(C)(C)C[C@H](NC(=O)[C@@H](NC(=O)[C@H](Cc1ccc(O)cc1)NC(=O)[C@@H]1CCCN1C(=O)[C@H](CCCNC(=N)N)NC(=O)C(NC(=O)[C@@H]1CCCN1C(=O)[C@H](CCCCN)NC(=O)[C@H](CC(N)=O)NC(=O)[C@H](CCC(=O)O)NC(=O)[C@@H](Cc1ccc(O)cc1)NC(=O)CN(CCN(CCN(CC(=O)O)CC(=O)O)CC(=O)O)CC(=O)O)C1CCN(C(=N)N)CC1)C(C)(C)C)C(=O)O (stereo partly drawn) [Compound XV] ({DTPA}-[dY]ENKP[ξGly(4-Pip(1-amidino))]RPY[Tle][tBuAla]-OH); 89.8%
CC[C@H](C)[C@H](NC(=O)[C@H](Cc1ccc(O)cc1)NC(=O)[C@@H]1CCCN1C(=O)C(Cc1ccc(NC(=N)N)cc1)NC(=O)C(Cc1ccc(NC(=N)N)cc1)NC(=O)[C@@H]1CCCN1C(=O)[C@@H](CCCCN)NC(=O)CN(CCN(CCN(CC(=O)O)CC(=O)O)CC(=O)O)CC(=O)O)C(=O)N[C@@H](CC(C)C)C(=O)O (stereo partly drawn) ({DTPA}-[dK]P[ξPhe(4-guanidino)][ξPhe(4-guanidino)]PYIL-OH); 2.3%
CC(C)C[C@H](NC(=O)[C@@H](NC(=O)[C@@H](Cc1ccc(O)cc1)NC(=O)[C@@H]1CCCN1C(=O)[C@H](CCCNC(=N)N)NC(=O)C(NC(=O)[C@@H]1CCCN1C(=O)[C@@H](CCCCN)NC(=O)CN(CCN(CCN(CC(=O)O)CC(=O)O)CC(=O)O)CC(=O)O)C1CCN(C(=N)N)CC1)C(C)(C)C)C(=O)O (stereo partly drawn); 98.3%
CC(C)C[C@@H](CN[C@@H](CC(C)C)C(N)=O)NC(=O)[C@H](Cc1ccc(O)cc1)NC(=O)[C@@H]1CCCN1C(=O)[C@H](CCCNC(=N)N)NC(=O)[C@H](Cc1ccc(NC(=N)N)cc1)NC(=O)[C@@H]1CCCN1C(=O)[C@@H](CCCCN)NC(=O)CN(CCN(CCN(CC(=O)O)CC(=O)O)CC(=O)O)CC(=O)O ({DTPA}-[dK]P[Phe(4-guanidino)]RPY-X1; C-terminus assumed); 95.7%

###

- ASSAY_METHOD_TEXT: In vitro serum stability assay (HPLC) of In-111 labeled peptide
- Type: in vitro ADME, human
- CONDITION: human serum, 37EC, 4 hours
Some compounds, each annotated with its measured % of compound present at 4 hours in serum.
OUTCOME_MEASURE: % of compound present at 4 hours in serum (%)

CC[C@H](C)[C@H](NC(=O)[C@H](Cc1ccc(O)cc1)NC(=O)[C@@H]1CCCN1C(=O)[C@H](CCCNC(=N)N)NC(=O)C(CCc1ccnc(N)n1)NC(=O)[C@@H]1CCCN1C(=O)[C@@H](CCCCN)NC(=O)CN(CCN(CCN(CC(=O)O)CC(=O)O)CC(=O)O)CC(=O)O)C(=O)N[C@@H](CC(C)C)C(=O)O (single isomer, unassigned); 4.3
CC[C@H](C)[C@H](NC(=O)[C@H](Cc1ccc(O)cc1)NC(=O)[C@@H]1CCCN1C(=O)[C@H](CCCNC(=N)N)NC(=O)[C@H](CCCNC(=N)N)NC(=O)CN(CCN(CCN(CC(=O)O)CC(=O)O)CC(=O)O)CC(=O)O)C(=O)N[C@@H](CC(C)C)C(=O)O [DTPA-Arg-Arg-Pro-Tyr-Ile-Leu-OH, reference compound]; 1.6
CC[C@H](C)[C@H](NC(=O)[C@H](Cc1ccc(O)cc1)NC(=O)[C@@H]1CCCN1C(=O)[C@H](CCCNC(=N)N)NC(=O)C(Cc1ccc(NC(=N)N)cc1)NC(=O)[C@@H]1CCCN1C(=O)[C@@H](CCCCN)NC(=O)CN(CCN(CCN(CC(=O)O)CC(=O)O)CC(=O)O)CC(=O)O)C(=O)N[C@@H](CC(C)C)C(=O)O (stereo partly shown); 14.1
CC[C@H](C)[C@H](NC(=O)[C@H](Cc1ccc(O)cc1)NC(=O)[C@@H]1CCCN1C(=O)[C@H](CCCNC(=N)N)NC(=O)C(NC(=O)[C@@H]1CCCN1C(=O)[C@@H](CCCCN)NC(=O)CN(CCN(CCN(CC(=O)O)CC(=O)O)CC(=O)O)CC(=O)O)C1CCN(C(=N)N)CC1)C(=O)N[C@@H](CC(C)C)C(=O)O (single isomer, unassigned); 19.5
